- target-system: ARL11 (Homo sapiens, UniProt Q969Q4)
- Construct: amino acids 1–196 (GST tag cleaved with thrombin)
- Sequence (Q969Q4 whole entry, the tested form may be a part): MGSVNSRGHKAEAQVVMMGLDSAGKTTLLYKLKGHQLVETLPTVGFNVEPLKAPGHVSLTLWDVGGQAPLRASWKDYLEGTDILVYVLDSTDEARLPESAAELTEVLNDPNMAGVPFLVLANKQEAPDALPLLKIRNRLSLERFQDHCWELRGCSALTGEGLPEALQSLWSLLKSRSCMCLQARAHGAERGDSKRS
- method-description: ITC; 1H-15N HSQC NMR
- Format: binding
quantity: pKd
Remember the convention: pKd equals -log10 of concentration in molar.

Missing value: pKd, ARL11 (Homo sapiens, UniProt Q969Q4), entry Nc1nc2c(ncn2[C@@H]2O[C@H](COP(=O)(O)OP(=O)(O)OP(O)(O)=S)[C@@H](O)[C@H]2O)c(=O)[nH]1 [GTPγS] . Fill in? 8.82

---

- target-system: ARL11 (Homo sapiens)
- Construct: amino acids 1–196 (GST tag cleaved with thrombin)
- method-description: ITC; 1H-15N HSQC NMR
- Type: binding
- experimental-setup: read-out: Kd
quantity: Kd (nM)
Numbers only; they are read as nM.

Please look up its Kd: Nc1nc2c(ncn2[C@@H]2O[C@H](COP(=O)(O)OP(=O)(O)O)[C@@H](O)[C@H]2O)c(=O)[nH]1 1730
